tested on: .221A2.1 peptide-loaded target cells and cells expressing endogenous antigen; test: Primary in vitro CTL induction with peptide-pulsed DC, CTL lytic activity by 51Cr release; type: cell-based, human; details: immunogenicity, CTL recognition of the peptide, positive/tested
Catalogue of molecules with associated A2 peptide

molecule	quantityKind	testValue
CC(C)C[C@H](NC(=O)[C@H](CC(=O)O)NC(=O)[C@@H](NC(=O)[C@H](CS)NC(=O)[C@H](CCC(N)=O)NC(=O)[C@H](CC(C)C)NC(=O)[C@@H](N)CCCCN)C(C)C)C(=O)N[C@@H](Cc1c[nH]cn1)C(=O)N[C@H](C(=O)N[C@H](C(=O)O)C(C)C)C(C)C [Peptide 1419.24]	A2 peptide	1/2
CC[C@H](C)[C@H](NC(=O)[C@H](CO)NC(=O)[C@H](CC(C)C)NC(=O)[C@H](CC(C)C)NC(=O)[C@@H](N)CC(C)C)C(=O)N[C@@H](C)C(=O)N[C@@H](CC(C)C)C(=O)N[C@@H](CO)C(=O)N[C@H](C(=O)O)C(C)C [Peptide 1418.13]	A2 peptide	2/2
CC(C)C[C@H](NC(=O)[C@H](Cc1c[nH]c2ccccc12)NC(=O)[C@H](Cc1ccccc1)NC(=O)[C@H](Cc1ccccc1)NC(=O)[C@H](CC(C)C)NC(=O)[C@@H](N)CC(C)C)C(=O)N[C@@H](CC(=O)O)C(=O)N[C@@H](CCCNC(=N)N)C(=O)N[C@@H](CO)C(=O)N[C@H](C(=O)O)C(C)C [Peptide 1097.09]	A2 peptide	3/3
CSCC[C@H](NC(=O)[C@H](C)NC(=O)[C@H](CO)NC(=O)[C@H](CCSC)NC(=O)[C@H](CC(C)C)NC(=O)[C@@H](N)[C@@H](C)O)C(=O)N[C@H](C(=O)N[C@@H](CC(N)=O)C(=O)N[C@@H](CC(C)C)C(=O)O)[C@@H](C)O [Peptide 1177.01]	A2 peptide	2/2
CSCC[C@H](NC(=O)CN)C(=O)N1CCC[C@H]1C(=O)N[C@@H](CCC(=O)O)C(=O)NCC(=O)N[C@@H](CC(=O)O)C(=O)N[C@@H](CC(C)C)C(=O)N[C@H](C(=O)N[C@@H](Cc1ccc(O)cc1)C(=O)N[C@H](C(=O)O)C(C)C)C(C)C [Peptide 1129.04]	A2 peptide	0/1

Query block: What value of measured A2 peptide is listed for CC(C)C[C@H](NC(=O)[C@H](CC(=O)O)NC(=O)[C@@H](NC(=O)[C@H](CS)NC(=O)[C@H](CCC(N)=O)NC(=O)[C@H](CC(C)C)NC(=O)[C@@H](N)CCCCN)C(C)C)C(=O)N[C@@H](Cc1c[nH]cn1)C(=O)N[C@H](C(=O)O)C(C)C [Peptide 990.01] ?
Result block: 1/2

Query block: Please look up its A2 peptide: CSCC[C@H](NC(=O)[C@H](CC(C)C)NC(=O)[C@H](CCC(N)=O)NC(=O)[C@H](CC(=O)O)NC(=O)[C@H](CC(N)=O)NC(=O)[C@H](CCSC)NC(=O)[C@@H](N)CCSC)C(=O)N[C@@H](Cc1ccccc1)C(=O)N[C@@H](CC(C)C)C(=O)O [Peptide 1126.01]
Result block: 2/2

FYI, the data here is from patent US20040037843A1.
